Attribution: ChEMBL document CHEMBL4513216

# Tested on: Plasmodium falciparum
# PROCEDURE_SUMMARY: Screen against P. falciparum Asexual Blood Stage (ABS), at 5uM
# Format: functional, Dd2
# EXPERIMENTAL_SETUP: tested at 5 uM
Screen size: about 65,000 compounds; about 2,100 (3.2%) showed an effect of 50% or more. The median lay at about -52%. The entries come from a sample that favours strong results as a whole.
OUTCOME_MEASURE: INHIBITION
Please append the unit to your numeric answer.

[
  {
    "COMPOUND": "COC(=O)c1cccnc1N1CCC(Oc2cccc(F)c2)CC1",
    "OUTCOME_MEASURE": "INHIBITION",
    "OBSERVED_RESULT": "-23.9%"
  },
  {
    "COMPOUND": "COc1ccc(CNC(C)c2ccc(Cl)c(Cl)c2)c(OC)c1OC (stereo unspecified)",
    "OUTCOME_MEASURE": "INHIBITION",
    "OBSERVED_RESULT": "66%"
  },
  {
    "COMPOUND": "COc1ccc(C(C)NCc2ccc(OC)c(OC)c2OC)cc1F (stereo unspecified)",
    "OUTCOME_MEASURE": "INHIBITION",
    "OBSERVED_RESULT": "36%"
  },
  {
    "COMPOUND": "COc1cc(CNC(C)c2ccc(F)c(F)c2)cc2c1OCCO2 (stereo unspecified)",
    "OUTCOME_MEASURE": "INHIBITION",
    "OBSERVED_RESULT": "-7.66%"
  }
]

Each of the following entries comes with a recorded value; kindly state INHIBITION for each.
1. CNc1nc(C2CCN(C(=O)CC3CCCC3)C2)nc2c1CN(C)CC2 (stereo unspecified)
2. Cn1nc(CN2CCC(c3ccncc3)CC2)c2c(Cl)cccc21

Marked response:
1. -4.57%
2. -14.6%
